Test system: MS2 coat protein
Test: apparent Kd, MS2 coat protein; higher = weaker binding; RNA-MaP array; FMN 200 µM where present
Settings: ligand present: flavin mononucleotide; designed as: OFF switch for flavin mononucleotide
Assignment: determine reported apparent Kd for the given sequences.
Give your result in nM as a bare value.

Problem: For MS2 coat protein, provide apparent Kd of GGUACUCAAAGAGUACGGAGUCGAACAUGAGGAUCACCCAUGUAGGAUAUGCUAUUCUUGAAGUUGCAGAAGGACAUGUGCAGC please.
Solution: 11.1

Problem: For MS2 coat protein, provide apparent Kd of UUUUAACAUGAGGAUCACCCAUGUGAGGAUAUCGAUAUUUAUAUUAAUAUUAAUAAAACGAGAAGGCACAUUUU please.
Solution: 87.2

Problem: For MS2 coat protein, provide apparent Kd of ACACAGAAAGGAUAUGCAGGGAGAUAAAGCUUCUUGUUCCAACAUGAGGAUCACCCAUGUAGAAGGUUCGAAAA please.
Solution: 99.5

Problem: For MS2 coat protein, provide apparent Kd of AUUAAGCAGCAGGAUAUAAUUAUCUGAAGGUGGUUAGAAGGGCUGACAUGAGGAUCACCCAUGUGCUCUUCGUG please.
Solution: 32.2

Problem: For MS2 coat protein, provide apparent Kd of UAAUAAUAAUAAUAGCAGAAUUACAUGAGGAUCACCCAUGUAUAGGAUAUCGUCAGGAAUACUGACGAGAAGGAUACAAACUGC please.
Solution: 21.9

Source listed as the EternaBench riboswitch data.
